tested target: NET (Homo sapiens, UniProt P23975)
Sequence (P23975 whole entry): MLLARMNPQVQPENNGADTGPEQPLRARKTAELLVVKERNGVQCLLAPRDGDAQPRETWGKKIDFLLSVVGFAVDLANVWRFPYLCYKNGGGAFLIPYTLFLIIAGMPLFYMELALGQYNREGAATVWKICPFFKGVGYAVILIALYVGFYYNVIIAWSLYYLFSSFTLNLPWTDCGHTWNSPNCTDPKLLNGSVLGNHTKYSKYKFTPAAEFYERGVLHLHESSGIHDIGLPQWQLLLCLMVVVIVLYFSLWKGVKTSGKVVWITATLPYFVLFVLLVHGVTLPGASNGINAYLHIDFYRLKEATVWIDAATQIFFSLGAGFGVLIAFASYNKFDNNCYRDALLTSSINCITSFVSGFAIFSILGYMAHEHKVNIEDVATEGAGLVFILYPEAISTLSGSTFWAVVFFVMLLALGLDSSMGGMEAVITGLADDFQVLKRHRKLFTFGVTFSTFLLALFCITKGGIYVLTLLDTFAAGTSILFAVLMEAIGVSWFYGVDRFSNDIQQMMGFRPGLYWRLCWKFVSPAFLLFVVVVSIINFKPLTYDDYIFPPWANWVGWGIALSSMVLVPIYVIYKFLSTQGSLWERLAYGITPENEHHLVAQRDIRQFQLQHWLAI
protocol description: Competitive cellular uptake assay against [3H]NE uptake in SK-N-SH cells
IC50 strictly less than 4 µM = Y. Otherwise N.

entry smiles | class assignment
N=C(N)NCCc1ccc(OCCCF)c(Cl)c1 | Y
N=C(N)NCCc1ccc(OCCCF)cc1 | N
N=C(N)NCCc1ccc(OCCCF)c(Br)c1 | Y
N=C(N)NCCc1ccc(OCCCF)c(O)c1 | N
N=C(N)NCCc1ccc(OCCCF)c(I)c1 | N

---

heart-to-blood (H/B) ratio values by entry
protocol description: Rat biodistribution study, heart-to-blood ratio of fluorine-18-labeled tracers
Format: in vivo
protocol conditions: male Wistar rats, 10 min after tail vein administration of fluorine-18-labeled tracer (1-2 MBq), n = 3-6

entry smiles | heart-to-blood (H/B) ratio
N=C(N)NCCc1ccc(OCCCF)c(I)c1 | 5.9
N=C(N)NCCc1ccc(OCCCF)c(F)c1 | 13.2
N=C(N)NCCc1ccc(OCCCF)c(Br)c1 | 8.7
N=C(N)NCCc1ccc(OCCCF)c(Cl)c1 | 10.4

Values were extracted from paper PMC9963373.
